Where these numbers come from: the Human Domainome abundance scans (Beltran et al. 2025)

B1: Peroxisome proliferator-activated receptor delta, residues 71 to 145; numbered along this chain, Q03181 (parent)
chain: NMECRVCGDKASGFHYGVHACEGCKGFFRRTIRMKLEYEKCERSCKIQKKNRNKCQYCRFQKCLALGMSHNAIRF

Variants of: B1
Experiment: abundance fitness (aPCA) (normalised: wild type 0, dead -1); higher = more abundant; growth selection in yeast, the domain comes from the species named
Conditions: Homo sapiens
Property measured: abundance fitness
The reply should be a number, written without any unit.

{"Polymer sequence": "NMECIVCGDKASGFHYGVHACEGCKGFFRRTIRMKLEYEKCERSCKIQKKNRNKCQYCRFQKCLALGMSHNAIRF [R5I]", "abundance fitness": -0.176}
{"Polymer sequence": "NMECRVCGDKASGFHYGVHACEGCKGFFRRTIRMKLEYEKCERSCKIQKKNRNKCQYCRFQKCLALGMSHQAIRF [N71Q]", "abundance fitness": 0.034}
{"Polymer sequence": "NMECRVCGDKASGFHYGVHACEGCKGFFRRTIRMKREYEKCERSCKIQKKNRNKCQYCRFQKCLALGMSHNAIRF [L36R]", "abundance fitness": -0.26}
{"Polymer sequence": "NMECRVCGDKASGFHYGVHACEGCKGFFRRTIRMKLEYEKCERSDKIQKKNRNKCQYCRFQKCLALGMSHNAIRF [C45D]", "abundance fitness": -1.01}
{"Polymer sequence": "NMECRVCGDKASGFHYGVHACEGCKGFFRRTIRMKLEYEKCERSCKIQKKNRNKCIYCRFQKCLALGMSHNAIRF [Q56I]", "abundance fitness": -0.599}

Ask: # abundance fitness lookup, item NMECRVCGDKASGFHYGVHACEGCKGFFRRTIRMKLEYEKCERSCKIQKKNRMKCQYCRFQKCLALGMSHNAIRF [N53M]
Result: -0.067

Ask: # abundance fitness lookup, item NMECRVCGDKASGFHYGVHACEGCKGFFRRTIRMKLEYEKCERSYKIQKKNRNKCQYCRFQKCLALGMSHNAIRF [C45Y]
Result: -0.374

Ask: # abundance fitness lookup, item NMECRVCGDKASGFKYGVHACEGCKGFFRRTIRMKLEYEKCERSCKIQKKNRNKCQYCRFQKCLALGMSHNAIRF [H15K]
Result: -0.61

Ask: # abundance fitness lookup, item NMECRVCGDKASGFHYGVHACEGCKGFFRRTIRMKLEYEKCERSCHIQKKNRNKCQYCRFQKCLALGMSHNAIRF [K46H]
Result: 0.047

Ask: # abundance fitness lookup, item NMECRVCGDKASGFHYGVHACEGCKGFFRRTIRMKLEYEKCERSCKIQKKNRNKCQYCRFQKCLALGLSHNAIRF [M68L]
Result: -0.725
